Tested on: OVCAR-5 ovarian
testName: NCI-60 one-dose screen, 48 h (100 = growth as untreated, 0 = no growth, -100 = all killed)
runConditions: 10 µM
Compounds without any hit were thinned out: in the full panel of roughly 83,000, 20% have a hit.

| compound | growth (%) |
| --- | --- |
| CCCCCCCCCCCCc1ccc(C(=O)/C=C/C(=O)O)cc1 | 94.1 |
| Cc1ccc(S(=O)(=O)Oc2ccccc2-c2ccccc2)cc1 | 63.6 |
| CCCc1c(CC)c(=N)c2ccccc2n1C | 100 |
| COc1ccc(-c2nnc(COc3ccc(NC(=O)Nc4ccccc4)cc3F)o2)cc1 | 114 |
| COc1ccccc1Cn1cc2c(c1-c1ccccc1)CCc1cnoc1-2 | 77.2 |
| O=C1CC[C@@H](C(=O)N[C@H]2CSSC[C@@H](C(=O)N/C=C/c3ccc(O)cc3)NC(=O)[C@H](Cc3ccccc3)NC(=O)[C@@H]3CCCN3C(=O)[C@@H]3CCCN3C2=O)N1 | 102 |
| CCCCNC(=O)Oc1ccc(/C(=C(\C)c2ccc(OC)cc2)c2ccc(OCCN3CCCCC3)cc2)cc1 | 74.9 |
| CCCCCC(=O)N1c2ccccc2NC2=C(C(=O)CC(c3ccc(OC)c(OC)c3)C2)C1c1ccc(C(F)(F)F)cc1 (stereo not given) | 103 |
| COc1cc(C2C=C(c3ccc(Cl)cc3)N=C3SC(C)=CN32)cc(OC)c1OC (stereo not given) | 85.2 |
| C=CCn1ccc(=O)nc1SC | 109 |
| O=C(/C=C/c1ccc(Cl)cc1)c1ccc(Br)cc1 | 91.8 |
| COc1ccc(Cn2cc3c(c2-c2ccccc2)CC(C)(C)c2cnoc2-3)cc1 | 78 |
| N=C(N)c1ccc(-c2ccc(-c3ccccc3)s2)s1 | -23.7 |
| COc1cc(/C=C/C(=O)c2cc(-c3ccccc3)ccc2O)cc(OC)c1OC | 93.1 |
| O=C(Nc1ccc(Oc2ccc(Nc3nc4ccccc4s3)cc2)cc1)Nc1ccc(Cl)c(Cl)c1 | 70.5 |
| CCCCCCCCCCSC(=N)N (tested in a mixture with another compound) | 101 |
| Clc1cc(Cl)c(OCCCCCCN2CCNCC2)c(Cl)c1 | 71 |
| CCN(Cc1ccccc1)C1CCN(Cc2cc(Br)ccc2O)CC1 | 68.1 |
| O=c1oc2cc(OS(=O)(=O)C3CC3)ccc2c2c1CCCCCC2 | 100 |
| Nc1c(CNCc2nnn(Cc3ccccc3)c2N)nnn1Cc1ccccc1 | 95.5 |
| C/C(=N\NC(=O)c1sc(=S)n(C)c1N)c1cc2ccccc2o1 | 74.1 |
| COc1cc(-c2nc3ccc(C)cc3[nH]2)ccc1OCc1nnc(-c2ccc(CC(C)C)cc2)o1 | 102 |
| CCOC(=O)C(CCC1=NC(C)(C)CC(C)O1)C(=O)OCC (stereo not given) | 62.5 |
| CC(=O)Oc1ccc(C2=Cc3ccc(OC(C)=O)cc3OC2C)cc1 (stereo not given) | 122 |
| CC(=O)[C@H]1CC[C@H]2[C@@H]3CC[C@@H]4CC=C(C=O)C[C@]4(C)[C@H]3CC[C@]12C | 96.9 |
| COc1cccc2c1O/C(=C\c1ccc([N+](=O)[O-])s1)C2=O | 101 |
| Oc1ccccc1-c1nnc(Cn2c(Cc3cccc4ccccc34)nc3ccccc32)o1 | 96.8 |
| COC(=O)[C@]12CC[C@@H](C)[C@H](C)[C@@H]1C1=CC[C@@H]3[C@@]4(C)CC(=O)[C@H](O)[C@@](C)(CO)[C@@H]4C(=O)C[C@@]3(C)[C@]1(C)CC2 | 50.7 |
| O=C1/C(=C/c2ccc(O)cc2O)N=C2SCCCN12 | 92.9 |
| CCOC(=O)Cn1nnc(-c2ccc(OCc3ccccc3F)cc2)n1 | 92.6 |
| COC(=O)c1c(C)nc(Nc2nc3ccccc3s2)nc1-c1ccc(Cl)cc1Cl | 113 |
| N#C/C(=C\N1C(=O)/C(=C/c2cccc([N+](=O)[O-])c2)SC1=S)c1nc2ccccc2s1 | 102 |
| COc1ccc(-c2[nH]ncc2-c2cc(OC)c(OC)c(OC)c2)cc1 | 20.7 |
| c1ccc(CC(NCCNC(Cc2ccccc2)c2ccccc2)c2ccccc2)cc1 (stereo not given) | 55.2 |
| COc1ccc(C(C)=O)cc1N1C(=O)C2C(C1=O)C1(c3ccccc3)C(=O)C2(c2ccccc2)C(c2ccc(C)cc2)=C1c1ccc(C)cc1 (stereo not given) | 55.7 |
| COc1ccc(CCc2nc3cc(-c4c(C)noc4C)ccc3n2CCN2CCOCC2)cc1 | 49.8 |
| CCOc1ccc(-n2cc(-c3ccc(N(C)C)cc3)[n+]3c2CCCCC3)cc1 | 40 |
| CCOCC[P+](c1ccccc1)(c1ccccc1)c1ccccc1 | 76.2 |
| COc1ccc(C2C=C(c3ccc(Cl)c(Cl)c3)N=C3SC(C)=CN32)cc1 (stereo not given) | 102 |
| CCCCc1ccc(NC(=O)N(CCCl)N=O)cc1 | 104 |

====

Test system: TK-10 renal
testName: NCI-60 one-dose screen, 48 h
runConditions: 10 µM
This is part of a sample that, as a whole, favours compounds with a hit. Of some 83,000 tested, about 20% had one in any assay. Calls of active or inactive are those of the source. How the source made its calls: active means growth percent below 10; inactive means the rest.
Possible outcomes: T (active), F (inactive)

| molecule | assaySystem | category |
| --- | --- | --- |
| C[N+]1(CC2CO2)CCCCCC1 (stereo not drawn) | TK-10 renal | F |
| CCNC1(NC#N)CCCCC1 | TK-10 renal | F |
| COC(=O)c1c(C)nc(Nc2nc3ccccc3s2)nc1-c1ccc(Cl)cc1Cl | TK-10 renal | F |
| O=C(CSc1nnc(-c2ccc(Cl)cc2)o1)c1ccccc1 | TK-10 renal | F |
| Nc1c(C(=O)Nc2ccccc2F)sc2nc3c(cc12)C(=O)CCC3 | TK-10 renal | F |
| Cc1ccc(-c2cc(C(=O)Nc3ccc(S(=O)(=O)N4CCCCC4)cc3)[nH]n2)c(O)c1 | TK-10 renal | F |
| NC(=O)c1ccc(Br)o1 | TK-10 renal | F |
| CCc1c(C)[nH]c(=O)c(C(N)=O)c1C#N | TK-10 renal | F |
| COc1ccc(-c2nnc(COc3ccc(NC(=O)Nc4cccc(C(F)(F)F)c4)cc3F)o2)cc1 | TK-10 renal | F |
| CCCCCCCCCCCCc1ccc(C(=O)/C=C/C(=O)O)cc1 | TK-10 renal | F |
| O=C(COc1ccc(-c2nc3ccccc3[nH]2)cc1)N=Nc1c(O)[nH]c2ccccc12 | TK-10 renal | F |
| COc1ccc(/C=C2\CCC3C(CCCC34OCCO4)C2=O)cc1 (stereo not drawn) | TK-10 renal | F |
| N/C(=N\O)c1cn(C2OC(CO)C(O)C2O)c2ncnc(N)c12 (stereo not drawn) | TK-10 renal | T |
| NC(=O)C1CCCN(Cc2c[nH]c3ccccc23)C1 (stereo not drawn) | TK-10 renal | F |
| C=C[C@]1(C)C=C2C(=O)[C@@]3(O)OC(=O)[C@@]4(CCCC(C)(C)[C@H]34)[C@@]2(O)CC1 | TK-10 renal | T |
| COc1ccc(CSc2nc3cc(OC)c(OC)cc3c(=O)n2-c2ccc(OC)cc2OC)cc1 | TK-10 renal | F |
| CCOC(=O)Cn1nnc(-c2ccc(OCc3ccccc3F)cc2)n1 | TK-10 renal | F |
| CC(C)CCN(CCCNc1c2c(nc3cc(Cl)ccc13)CCCC2)CCC(C)C | TK-10 renal | F |
| CCOC(=O)/C(C#N)=C(/C)C1CC1 | TK-10 renal | F |
| CCCCCN(CCCCC)C(C)C(O)c1ccc2cc(Cl)c3ccccc3c2c1 (stereo not drawn) | TK-10 renal | F |
| COc1cccc(C2(C)Nc3ccccc3-c3nc4ccccc4n32)c1 (stereo not drawn) | TK-10 renal | F |
| Cc1cc(C)c2nc(C)c(C)[n+]([O-])c2c1 | TK-10 renal | F |
| C[C@@H]1C(=O)N(C[C@H](Cc2ccccc2)NC(=O)OCc2ccccc2)[C@]1(Cc1ccccc1)C(=O)OCc1ccccc1 | TK-10 renal | F |

====

System: UACC-257 melanoma
testName: NCI-60 one-dose screen, 48 h
runConditions: 10 µM
This is part of a sample that, as a whole, favours compounds with a hit. Of some 83,000 tested, about 20% had one in any assay. The source made the active and inactive calls. Rule for the calls: active = growth percent below 10; inactive = the rest.
Possible outcomes: class 1 for active, class 0 for inactive

| compound | category |
| --- | --- |
| Nc1nc(SCC#CCCl)c2[nH]cnc2n1 | class 0 |
| COc1cccc2c1C(=O)c1c(O)c3c(c(O)c1C2=O)C[C@@](O)(C(=O)COC(=O)c1ccccc1)C[C@@H]3OC1CC(N)C(O)C(C)O1 (some centres undefined) | class 1 |
| COc1ccc(-c2nc(SCC(=O)c3ccc(Br)cc3)[nH]c(=O)c2C#N)cc1 | class 0 |
| O=C1/C(=C/c2ccc(O)cc2)Cc2ccc(Cl)cc21 | class 0 |
| Nc1c(C(=O)NC2CCCCC2)sc2nc3c(cc12)C(=O)CCC3 | class 0 |
| CC(C)C(C)C(N)C(=O)O (centres undefined) | class 0 |
| COc1ccc(-c2cc(/C=C3\C(=O)Nc4cc(Cl)ccc43)[nH]n2)cc1OC | class 0 |
| COc1ccc(-c2n/c(=C\c3c(O)[nH]c4ccccc34)cc3c2=Nc2ccccc2-3)cc1 | class 0 |
| Cn1c(=O)c2[nH]c(C(O)c3ccc(Cl)cc3)nc2n(C)c1=O (centres undefined) | class 0 |
| CCc1ccc(-c2nnc(COc3ccc(-c4nc5ccc(C)cc5[nH]4)cc3OC)o2)cc1 | class 0 |
| CCCCn1c(=O)[nH]c2c(c1=O)C(c1ccc(Cl)cc1)c1c([nH]c(=O)n(CCCC)c1=O)N2 | class 0 |
| COc1ccc(OC)c([N+](=O)[O-])c1C=O | class 0 |
| O=C1CC[C@@H](C(=O)N[C@H]2CSSC[C@@H](C(=O)NCCc3ccccc3)NC(=O)[C@H](Cc3ccccc3)NC(=O)[C@@H]3CCCN3C(=O)[C@@H]3CCCN3C2=O)N1 | class 0 |
| Cc1noc(C)c1-c1ccc2nc(NC(=O)[C@H]3CCN(C#N)C3)cn2c1 | class 0 |
| COc1ccc(C(=O)/C=C/c2cc(-c3ccc4c(c3)OCO4)n[nH]2)cc1OC | class 0 |
| COc1ccc(-c2cc(=O)n(-c3nc4ccccc4[nH]3)[nH]2)cc1OC | class 0 |
| COc1ccc(C2C=C(c3ccc(OC)c(OC)c3)N=C3SC=CN32)c(Br)c1 (centres undefined) | class 0 |
| O=[N+]([O-])c1ccc(-c2nc(-c3ccccc3)c(-c3ccccc3)n2-c2ccccc2)cc1 | class 0 |
| CCOc1nc(-c2ccccc2)cc2c(O)c(C(=O)N/N=C/c3ccc(OC)cc3)[nH]c(=O)c12 | class 0 |
| Cc1cc(OI)c(C(C)C)cc1-c1cc(C(C)C)c(OI)cc1C | class 0 |
| C[N+]1=C(/C=C/c2ccc(I)cc2)C(C)(C)c2ccccc21 | class 0 |
| Cc1cccc2c(Nc3ccc(NS(C)(=O)=O)cc3)c3ccc([N+](=O)[O-])cc3nc12 | class 1 |
| COc1nc2c(c(=O)[nH]1)C(c1ccc(Oc3ccnc4cc(Cl)ccc34)c(OC)c1)C=C(c1cc(OC)c(OC)c(OC)c1)N2 (centres undefined) | class 0 |
| CC1=CC2OC34COC3CC(OC(=O)C(F)(F)F)C4(C)C2(C)CC1 (centres undefined) | class 0 |
| C=C1C(=O)O[C@H]2[C@H]1CC/C(COC(=O)OCCCCCOC(=O)OC/C1=C/CC[C@@]3(C)O[C@H]3[C@H]3OC(=O)C(=C)[C@@H]3CC1)=C\CC[C@@]1(C)O[C@@H]21 | class 1 |
| COC(=O)[C@]12CC[C@@H](C)[C@H](C)[C@@H]1C1=CC[C@@H]3[C@@]4(C)C/C(=N\O)[C@H](O)[C@@]5(C)COC(=C45)C[C@@]3(C)[C@]1(C)CC2 | class 1 |
| O=S(=O)(O)C1(O)CCCCC1 | class 0 |
| NC1CCC(Nc2nc(NCc3ccc(-c4ccco4)nc3)c3ncn(C4CCCC4)c3n2)CC1 (centres undefined) | class 1 |
| CC(C)c1ncc(CO)n1Cc1c(Cl)cccc1Cl | class 0 |
| O=C(O)c1ccccc1C(=O)c1cccc2c(F)cccc12 | class 0 |
| Cc1cc(C#Cc2ccccc2)ccc1-n1c(/C=C/c2cc(O)ccc2O)nc2ccccc2c1=O | class 0 |
| Cc1[nH]nc2c(=S)[nH]c(=O)[nH]c12 | class 0 |
| COc1ccc(/C(=C/c2cc(OC)c(OC)cc2[N+](=O)[O-])C(=O)O)cc1 | class 0 |
| COc1ccc(-c2nnc(SCC(=O)c3ccccc3)o2)cc1 | class 0 |
| Nc1c(CNCc2nnn(Cc3ccccc3)c2N)nnn1Cc1ccccc1 | class 0 |
| CC(C)/C(=N/O)c1ccccc1 | class 0 |
| NC1CCC(Nc2nc(NCc3ccc(-c4cccs4)nc3)c3ncn(C4CCCC4)c3n2)CC1 (centres undefined) | class 1 |
| COc1cccc(C(=O)N(c2ccc(F)c(F)c2)C(C(=O)NC(C)(C)C)c2cc3c(C)cc(C)cc3nc2Cl)c1 (centres undefined) | class 0 |
| S=c1c2ncccc2c(-c2ccccn2)nn1Cc1ccccn1 | class 0 |
